# SYSTEM: T1, human CD19 (on Raji cells, CD19+ homo sapiens Burkitt's lymphoma) (human, UniProt P15391 20-556)
# T1 construct: whole, on cells; also called B-lymphocyte antigen CD19; B4
# T1 sequence (looked up): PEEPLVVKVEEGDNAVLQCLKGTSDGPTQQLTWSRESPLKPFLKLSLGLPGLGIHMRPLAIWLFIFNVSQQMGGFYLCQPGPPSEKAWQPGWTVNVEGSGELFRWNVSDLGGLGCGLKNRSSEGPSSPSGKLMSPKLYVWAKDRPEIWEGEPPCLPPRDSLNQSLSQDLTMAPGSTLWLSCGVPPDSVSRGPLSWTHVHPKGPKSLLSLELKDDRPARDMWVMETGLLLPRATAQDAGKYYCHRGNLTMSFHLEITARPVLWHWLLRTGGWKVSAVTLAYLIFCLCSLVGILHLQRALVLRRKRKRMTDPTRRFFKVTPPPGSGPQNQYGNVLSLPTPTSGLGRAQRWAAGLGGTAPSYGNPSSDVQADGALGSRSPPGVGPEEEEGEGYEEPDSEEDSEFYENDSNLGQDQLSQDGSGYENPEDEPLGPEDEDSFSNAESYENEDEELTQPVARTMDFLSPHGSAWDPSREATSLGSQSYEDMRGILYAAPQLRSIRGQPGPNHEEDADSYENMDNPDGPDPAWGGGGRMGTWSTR
# TEST_SUMMARY: flow cytometry titration on Raji cells, anti-His FITC; scFv at log(nM) 0.137273
Exercise: for every item that follows, state its recorded geometric mean (FACS titration).

Query: Data request, read-out geometric mean (FACS titration), for JS-scFv (scFv, leader left out here) scFv: DIQMTQSPSSLSASVGDRVTITCRASQDISKYLNWYQQKPDQAPKLLIKHTSRLHSGVPSRFSGSGSGTDYTLTISSLQPEDFATYYCQQGNTLPYTFGQGTKLEIKGSTSGSGKPGSGEGSTKGEVQLVESGGGLVQPGRSLRLSCTASGVSLPDYGVSWIRQPPGKGLEWIGVIWGSETTYYNSALKSRFTISRDNSKNTLYLQMNSLRAEDTAVYYCAKHYYYGGSYAMDYWGQGTLVTVSSHHHHHH
Response: 13.4

Query: Data request, read-out geometric mean (FACS titration), for SS-scFv (scFv, leader left out here) scFv: DIQMTQSPSFLSASVGDRVTITCRASQDISKYLNWYQQKPDQAPKLLIKHTSRLHSGVPSRFSGSGSGTDFTFTISSLQPEDIATYYCQQGNTLPYTFGQGTKLEIKGSTSGSGKPGSGEGSTKGEVQLVESGGGLVQPGRSLRLSCTASGVSLPDYGVSWVRQPPGKGLEWIGVIWGSETTYYNSALKSRFTISRDNSKNTLYLQMNSLRAEDTAVYYCAKHYYYGGSYAMDYWGQGTLVTVSSHHHHHH
Response: 13.9

Query: Data request, read-out geometric mean (FACS titration), for AS-scFv (scFv, leader left out here) scFv: DIQMTQSPSTLSASVGDRVTITCRASQDISKYLNWYQQKPDQAPKLLIKHTSRLHSGVPSRFSGSGSGTDFTFTISSLQPEDIATYYCQQGNTLPYTFGQGTKLEIKGSTSGSGKPGSGEGSTKGQVQLQESGPGLVKPSGTLSLTCAVSGVSLPDYGVSWIRQPPGKGLEWIGVIWGSETTYYNSALKSRVTISRDNSKNTLYLQMNSLRAEDTAVYYCAKHYYYGGSYAMDYWGQGTLVTVSSHHHHHH
Response: 14.2

Query: Data request, read-out geometric mean (FACS titration), for NS-scFv (scFv, leader left out here) scFv: DIQMTQSPSSLSASVGDRVTITCRASQDISKYLNWYQQKPGKAVKLLIYHTSRLHSGVPSRFSGSGSGTDYTLTISSLQPEDIATYFCQQGNTLPYTFGGGTKLEIKGSTSGSGKPGSGEGSTKGQVQLQESGPGLVKPSETLSVTCTVSGVSLPDYGVSWIRQPPGKGLEWLGVIWGSETTYYNSALKSRLTISKDTSKNQVFLKMSSLTAADTAIYYCAKHYYYGGSYAMDYWGQGTLVTVSSHHHHHH
Response: 15.7
